Parameter: melting point. Scope: all listed entries.

molecule | result_value
CC1OC(=O)N(Cc2ccccc2[N+](=O)[O-])C1=O (stereo not given) | 114 °C

Now turn to the next molecule.
Query: Quick check: melting point of `O=Cc1c[nH]c2ccc(-c3ccc4[nH]cnc4c3)cc12` ?
Reply: > 280 °C

----------
value_kind: melting point

smiles_entry | melting point
CC(C)N(CCS(=O)(=O)c1ccc(Cl)cc1)C(=O)Oc1ccccc1 | 77.5 to 79 °C

Query: Param item = `NS(=O)(=O)c1ccc(-c2nc(-c3ncn4c(C(F)(F)F)cc(-c5ccc(C(F)(F)F)cc5)nc34)no2)cc1` ; retrieve measured melting point.
Reply: 303 °C

Query: Also check `CCOc1ccc(OCc2ccc(OCc3nc(-c4ccccc4)oc3C)cc2)c(CC(=O)O)c1`
Reply: 122 to 123 °C

Query: Next entry: `Cc1ccc(-c2c(CNC(=O)OC(C)(C)C)n(CC(C)C)c(=O)c3ccc(/C=C/C(N)=O)cc23)cc1`
Reply: 152 to 154 °C

----------
value_kind: melting point

Recorded results for 3 compounds are shown here.
compound | melting point
CCOc1nn(Cc2ccc(OCc3nc(-c4ccccc4)oc3C)nc2)cc1CC(=O)O | 126 to 127 °C
COc1nc(N2CC(O)C2)c(Cl)nc1NS(=O)(=O)c1cccc(Cl)c1Cl | 93 to 95 °C
COc1cc(Cc2cnc(N)nc2N)c2c(c1OC)OC(C)CC2 (centres undefined) | 239 to 240 °C

Query: Suppose we examine the compound `CS(=O)(=O)c1ccc(-n2nc(C(F)(F)F)cc2-c2nc3ccc(F)cc3s2)cc1` ; what melting point value has been reported?
Reply: 194 to 196 °C

Query: Continue with `N#CCc1ccc(Nc2nc(OCC3CCCCC3)c3[nH]cnc3n2)cc1`
Reply: 191 to 192 °C

Query: Now give it for `CCCCn1ccc(-c2ccc(Oc3ccc(C(=O)O)cc3)cc2)c(Cl)c1=O` too.
Reply: 280 °C

Query: Input `Cc1cccc2ncc(NC(=O)Nc3ccc(F)cc3F)c(-c3ccccc3Cl)c12`
Reply: 218 to 220 °C

Query: Param item: `CN(C)c1ccc(/C=C/c2c(F)cccc2F)c(N)c1`
Reply: 97 to 98 °C

Query: Repeat for the following compound: `CN(Cc1ccncc1)Cc1ccc(CCC(=O)Nc2ccc(-c3ccc(Cl)cc3)cc2)cc1`
Reply: 102 °C

----------
value_kind: melting point

Sample answers from the record:
compound | result_value
O=[N+]([O-])c1c(F)c(F)c(O)c(Cl)c1F | 107 to 109 °C
CCCCCN(CCCCC)C(=O)C(CCC(=O)OC)CS(=O)(=O)c1ccc(Cl)c(Cl)c1 (stereo unspecified) | 52 to 54 °C
O=C(O)CCCCCCN1C(=O)c2ccccc2C1=O | 112 to 115 °C
O=S(=O)(NCC1CCN(C[C@H]2COc3ccc(Cl)cc3O2)CC1)c1ccc(F)cc1 | 127 to 129 °C
COC(=O)CCc1cc([N+](=O)[O-])c(O)c(C(C)(C)C)c1 | 41 to 42 °C

We now examine a further compound.
Query: Param item = `O=S1(=O)c2cccc3cccc(c23)N1CCCN1CCC(c2ccc(Cl)cc2)CC1` ; retrieve measured melting point.
Reply: 111 °C

----------
value_kind: melting point

Worked examples, 5 compounds total:
compound | melting point
O=C(NC(=O)N1CCC(Cc2ccccc2)CC1)c1ccc2[nH]c(=O)oc2c1 | 174 °C
Cc1ccc(-c2nnc(N3CCC(CO)CC3)nc2-c2ccc(C)cc2)cc1 | 152 to 154 °C
COc1cc(OCC(=O)O)c(C)cc1SCc1sc(-c2ccc(C(F)(F)F)cc2)nc1C | 211 to 213 °C
Nn1cc(Br)c(=O)[nH]c1=O | 214 to 215 °C
Cc1nccn1-c1nc(-c2ccc(Cl)c(Cl)c2)c(CCCO)o1 | 140 to 141 °C

Query: Endpoint output: melting point of `Cc1ccc2c(c1)c1c(n2Cc2ccc(F)cc2)CCCC1=O` . Value?
Reply: 210 °C

Query: Can you handle `CCCCc1nc2c(N)nc3ccccc3c2n1CCCCCCCCNC(=O)Nc1ccccc1` next?
Reply: 153 to 155 °C

Query: Another: `COC(=O)c1nc(-c2ccc(Cl)c(OC)c2F)nc(N)c1OC`
Reply: 155 to 158 °C

Query: What about this compound? Cc1nc2cc(N)ccc2c(=O)n1C1CCC(=O)NC1=O (stereo unspecified)
Reply: 305 to 307 °C

Query: Can you handle COc1ccc2c(c1)CCC(c1ccc(F)cc1)C2=O (stereo unspecified) next?
Reply: 124 to 127 °C

Query: Same lookup for `CCn1ncc2c(Cl)c3cc(S(C)(=O)=O)ccc3nc21` , please.
Reply: 158 to 160 °C

Query: Same for `O=C1Nc2ccc(-c3ccc(C=NO)c(F)c3)cc2C12CCCCC2`
Reply: 240 to 242 °C

Query: // query: `OCc1cccn2cc(-c3ccccc3)nc12`
Reply: 85 to 87 °C

Query: Please do the same for `Cc1cc(C)c(Nc2nc(C)ccc2S(=O)(=O)c2ccc(OCc3cc(Cl)nc(Cl)c3)cc2)c(C)c1` as well.
Reply: 192 to 201 °C

Query: Same thing, different compound: `O=C1c2ccccc2C(=O)N1Cc1ccc(OC(F)(F)F)cc1`
Reply: 82.1 to 83.6 °C

Query: And `CCc1nnc2n1-c1ccc(I)cc1C(c1ccccc1F)=NC2` ?
Reply: 209 to 211 °C
